- System: 843782-103-R-J1-PDC complex spheroid viability;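 also: viability read after seven days of compound exposure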
- assay-method-text: Anticancer human tumor 843782-103-R-J1-PDC patient-derived lung adenocarcinoma cell line growth inhibition [RAS]
- condition-parameters: curve of first compound; second compound 0.000949 µM
pIC50: −log10 of the molar value.
observation-type: pIC50

Some solved cases for reference:
# compound, value-measured
rows = [
    ("Cc1nc(N2CCC3(CC2)COC(C)C3N)c(CO)nc1Sc1ccnc(N)c1Cl (stereo not given) + CCn1c(-c2cc(N3CCN(C)CC3)cnc2C(C)OC)c2c3cc(ccc31)-c1csc(n1)CC(NC(=O)C1CC1C)C(=O)N1CCCC(N1)C(=O)OCC(C)(C)C2", 7.29),
    ("Nc1ccn(C2OC(CO)C(O)C2(F)F)c(=O)n1 (stereo not given) + CCn1c(-c2cc(N3CCN(C)CC3)cnc2C(C)OC)c2c3cc(ccc31)-c1csc(n1)CC(NC(=O)C1CC1C)C(=O)N1CCCC(N1)C(=O)OCC(C)(C)C2", 7.75),
    ("CC(C)NCC(C(=O)N1CCN(c2ncnc3c2C(C)CC3O)CC1)c1ccc(Cl)cc1 (stereo not given) + CCn1c(-c2cc(N3CCN(C)CC3)cnc2C(C)OC)c2c3cc(ccc31)-c1csc(n1)CC(NC(=O)C1CC1C)C(=O)N1CCCC(N1)C(=O)OCC(C)(C)C2", 6.29),
    ("CC(C)NCC(C(=O)N1CCN(c2ncnc3c2C(C)CC3O)CC1)c1ccc(Cl)cc1 (stereo not given) + CCn1c(-c2cccnc2C(C)OC)c2c3cc(ccc31)N1CCOC(CC(NC(=O)C(C(C)C)N(C)C(=O)C3(F)CCN(C(=O)C#CC(C)(C)N(C)C)CC3)C(=O)N3CCCC(N3)C(=O)OCC(C)(C)C2)C1", 6.54),
    ("O=C(c1ccc(F)c(F)c1Nc1ccc(I)cc1F)N1CC(O)([C@@H]2CCCCN2)C1 + CCn1c(-c2cc(N3CCN(C)CC3)cnc2C(C)OC)c2c3cc(ccc31)-c1csc(n1)CC(NC(=O)C1CC1C)C(=O)N1CCCC(N1)C(=O)OCC(C)(C)C2", 7.74),
    ("Cc1nc(N2CCC3(CC2)COC(C)C3N)c(CO)nc1Sc1ccnc(N)c1Cl (stereo not given) + CCn1c(-c2cccnc2C(C)OC)c2c3cc(ccc31)N1CCOC(CC(NC(=O)C(C(C)C)N(C)C(=O)C3(F)CCN(C(=O)C#CC(C)(C)N(C)C)CC3)C(=O)N3CCCC(N3)C(=O)OCC(C)(C)C2)C1", 7.26),
    ("CC1(C)CCC(Nc2ncc(C(F)(F)F)c(-c3c[nH]c4c(P(C)(C)=O)c(C#N)ccc34)n2)CN1 (stereo not given) + CCn1c(-c2cccnc2C(C)OC)c2c3cc(ccc31)N1CCOC(CC(NC(=O)C(C(C)C)N(C)C(=O)C3(F)CCN(C(=O)C#CC(C)(C)N(C)C)CC3)C(=O)N3CCCC(N3)C(=O)OCC(C)(C)C2)C1", 8.60),
]

(a) O=C(c1ccc(F)c(F)c1Nc1ccc(I)cc1F)N1CC(O)([C@@H]2CCCCN2)C1 + CCn1c(-c2cccnc2C(C)OC)c2c3cc(ccc31)N1CCOC(CC(NC(=O)C(C(C)C)N(C)C(=O)C3(F)CCN(C(=O)C#CC(C)(C)N(C)C)CC3)C(=O)N3CCCC(N3)C(=O)OCC(C)(C)C2)C1
(b) C=CC(=O)Nc1cc(Nc2nccc(-c3cn(C)c4ccccc34)n2)c(OC)cc1N(C)CCN(C)C + CCn1c(-c2cc(N3CCN(C)CC3)cnc2C(C)OC)c2c3cc(ccc31)-c1csc(n1)CC(NC(=O)C1CC1C)C(=O)N1CCCC(N1)C(=O)OCC(C)(C)C2
(c) CCc1c2c(nc3ccc(O)cc13)-c1cc3c(c(=O)n1C2)COC(=O)[C@]3(O)CC + CCn1c(-c2cc(N3CCN(C)CC3)cnc2C(C)OC)c2c3cc(ccc31)-c1csc(n1)CC(NC(=O)C1CC1C)C(=O)N1CCCC(N1)C(=O)OCC(C)(C)C2
(d) CC(C)n1nc(-c2ccc3oc(N)nc3c2)c2c(N)ncnc21 + CCn1c(-c2cccnc2C(C)OC)c2c3cc(ccc31)N1CCOC(CC(NC(=O)C(C(C)C)N(C)C(=O)C3(F)CCN(C(=O)C#CC(C)(C)N(C)C)CC3)C(=O)N3CCCC(N3)C(=O)OCC(C)(C)C2)C1
(e) CC(Nc1ccc2c(c1)OCCn1cc(N3C(=O)OCC3C(F)F)nc1-2)C(N)=O (stereo not given) + CCn1c(-c2cc(N3CCN(C)CC3)cnc2C(C)OC)c2c3cc(ccc31)-c1csc(n1)CC(NC(=O)C1CC1C)C(=O)N1CCCC(N1)C(=O)OCC(C)(C)C2
Prompt line: Rank the 5 compounds: largest pIC50 first, smallest last. Please reply with the labels ordered as requested. Many thanks.
Response line: c, d, a, e, b
(c: 8.83, d: 8.18, a: 7.74, e: 7.11, b: 6.53)
